Molecular target: UniProt:P21554
Sequence (P21554 whole entry): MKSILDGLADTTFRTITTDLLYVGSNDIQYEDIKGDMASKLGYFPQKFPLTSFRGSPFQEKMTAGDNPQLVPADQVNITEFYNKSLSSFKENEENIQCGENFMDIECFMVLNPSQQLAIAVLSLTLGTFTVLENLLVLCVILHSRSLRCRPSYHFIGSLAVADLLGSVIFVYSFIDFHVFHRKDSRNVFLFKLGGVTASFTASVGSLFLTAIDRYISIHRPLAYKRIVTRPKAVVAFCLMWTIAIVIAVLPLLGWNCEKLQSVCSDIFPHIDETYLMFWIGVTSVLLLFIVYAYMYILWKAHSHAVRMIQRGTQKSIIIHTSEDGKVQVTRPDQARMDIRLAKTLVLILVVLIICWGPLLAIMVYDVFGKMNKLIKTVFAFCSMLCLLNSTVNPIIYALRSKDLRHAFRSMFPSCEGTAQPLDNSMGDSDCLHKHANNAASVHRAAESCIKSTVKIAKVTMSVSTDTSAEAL
Test: Antagonist activity at human CB1 receptor expressed in HEK293 cells assessed as inhibition of Eu-GTP binding
metric name: EC50 (µM)

These solved cases illustrate the format of a correct answer.
{"compound": "CCCC#Cc1ccc(-c2c(C)c(C(=O)NN3CCCCCC3)nn2-c2ccc(Cl)cc2Cl)s1", "display unit": "µM", "recorded value": 0.0141}
{"compound": "CCC/C=C/c1ccc(-c2c(C)c(C(=O)NN3CCCCC3)nn2-c2ccc(Cl)cc2Cl)s1", "display unit": "µM", "recorded value": 0.146}
{"compound": "CCC#Cc1ccc(-c2c(C)c(C(=O)NN3CCCCC3)nn2-c2ccc(Cl)cc2Cl)s1", "display unit": "µM", "recorded value": 0.0514}
{"compound": "Cc1c(C(=O)NN2CCCCC2)nn(-c2ccc(Cl)cc2Cl)c1-c1ccc(C#CC2CCCC2)s1", "display unit": "µM", "recorded value": 0.0245}

(P) CCCCCc1ccc(-c2c(C)c(C(=O)NN3CC4CCCC4C3)nn2-c2ccc(Cl)cc2Cl)s1 (stereo not given)
(Q) Cc1c(C(=O)NN2CC3CCCC3C2)nn(-c2ccc(Cl)cc2Cl)c1-c1ccc(C#CC(C)(C)C)s1 (stereo not given)
(R) CCCC#Cc1ccc(-c2c(C)c(C(=O)NN3CCCCC3)nn2-c2ccc(Cl)cc2Cl)s1
(S) Cc1c(C(=O)NN2CC3CCCC3C2)nn(-c2ccc(Cl)cc2Cl)c1-c1ccc(C#CC2CCCCC2)s1 (stereo not given)
Put the items in sequence by EC50, from largest down. Returns: the labels listed in the requested order.
S, Q, P, R

* * *

Biological target: Cannabinoid receptor 2 (Homo sapiens, UniProt P34972)
Sequence (P34972 whole entry): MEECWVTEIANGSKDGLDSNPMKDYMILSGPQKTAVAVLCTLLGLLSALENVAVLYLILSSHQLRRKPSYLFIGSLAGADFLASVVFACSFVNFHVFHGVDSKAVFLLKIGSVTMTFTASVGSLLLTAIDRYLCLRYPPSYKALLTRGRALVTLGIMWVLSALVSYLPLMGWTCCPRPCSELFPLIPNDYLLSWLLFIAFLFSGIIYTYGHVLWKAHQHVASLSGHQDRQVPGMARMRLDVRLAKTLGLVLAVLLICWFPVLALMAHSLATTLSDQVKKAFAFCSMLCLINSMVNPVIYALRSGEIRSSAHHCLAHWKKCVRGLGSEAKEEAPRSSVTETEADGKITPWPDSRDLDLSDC
Experiment: Displacement of [3H]CP-55940 from human CB2 receptor expressed in HEK293 cells
pIC50: −log10 of the molar value.
metric name: pIC50

{"compound": "CCOCC#Cc1ccc(-c2c(C)c(C(=O)NN3CCCCC3)nn2-c2ccc(Cl)cc2Cl)s1", "pIC50": 6.01}
{"compound": "CCCC#Cc1ccc(-c2c(CC)c(C(=O)NN3CCCCC3)nn2-c2ccc(Cl)cc2Cl)s1", "pIC50": 6.04}

(A) Cc1c(C(=O)NN2CCCCC2)nn(-c2ccc(Cl)cc2Cl)c1-c1ccc(Cl)s1
(B) CCCC#Cc1ccc(-c2c(C)c(C(=O)NN3CC4CCCC4C3)nn2-c2ccc(Cl)cc2Cl)s1 (stereo unspecified)
Smaller pIC50 value, A vs B ? Indicate your choice by writing its label.
A
